assay: solvent given as SMILES; conditions: in ClCCl
parameter: absorption maximum
Please state the value followed by its unit.

// known answers, use as guide
CN(C)c1ccc(-c2c(/C=C3/C=Cc4ccccc4N3Cc3ccccc3)c(=O)c2=O)cc1; 511 nm
c1cc2c3c(c1)ccc1[n+]3[B-]3(Oc4cccc5ccc6[n+](c45)[B-](O2)(O3)n2c-6cc3c4ccccc4c4ccccc4c32)n2c-1cc1c3ccccc3c3ccccc3c12; 472 nm

For each of the compounds below, note its absorption maximum.
1. CCCCCCc1ccc2c3c(ccc2c1)O[B-](F)(F)[N+](c1ccc([N+]2=Cc4c(ccc5cc(CCCCCC)ccc45)O[B-]2(F)F)cc1)=C3
2. CCN(CC)c1ccc2c(-c3ccccc3C(=O)O)c3c([o+]c2c1)/C(=C/c1ccc(N2CCCC2)s1)CCC3
3. CCCCC(CC)Cn1c2cc(C#N)ccc2c2ccc(C#Cc3cc(C#Cc4ccc5c6ccc(C#N)cc6n(CC(CC)CCCC)c5c4)c4ccc5c(C#Cc6ccc7c8ccc(C#N)cc8n(CC(CC)CCCC)c7c6)cc(C#Cc6ccc7c8ccc(C#N)cc8n(CC(CC)CCCC)c7c6)c6ccc3c4c65)cc21 (stereo unspecified)
4. COc1ccc2cc(C3=[N+]4C(=Nc5c(-c6ccc7ccccc7c6)c(Br)c(-c6ccc7cc(OC)ccc7c6)n5[B-]4(F)F)C(c4ccc5ccccc5c4)=C3Br)ccc2c1

1. 430 nm
2. 738 nm
3. 467 nm
4. 698 nm
